Quick reference for inhibition among some compounds
experimental.target: Microphthalmia-associated transcription factor (Homo sapiens)
experiment.summary: MITF inhibitors, primary screen, biochemical, AlphaScreen, human (AID 1259374);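 further: 0% = vehicle wells with protein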
applied.conditions: AlphaScreen MITF homodimerization, bead proximity signal; at 2.6 µM; active compounds read high
The whole screen tested about 650,000 compounds, of which about 5,900 (0.91%) were called active. This is one part of a sample in which actives are shown more often than they occur.
recorded.endpoint: inhibition (%)

>>> df
                                    compound  result_units  result
 0  COc1ccc(NC(=O)Cn2nnc(C(=O)Nc3cc(Cl)ccc3OC)c2N)cc1             %   -3.11
 1  O=C(c1ccc2c(c1)C(=O)N(Cc1cccnc1)C2=O)c1ccc2c(c1)C(=O)N(Cc1cccnc1)C2=O             %     104
 2  COc1ccc2c(c1)CC(c1nc3ccc(-c4cccnc4)cc3o1)CO2 (configuration not stated)             %    -9.3
 3                   COc1ccc(OCCn2ccnc2C)cc1             %    57.2
 4  C=CCC1(CC=C)CCCN1C(=O)CC1C(=O)NCCN1Cc1ccccc1C (configuration not stated)             %    5.18
 5                   C=CCc1ccccc1OCCN1CCNCC1             %    26.5
 6             Cc1cccc(OCCOCCN2CCC(C)CC2)c1C             %    24.9
 7    CC(C)NC(=O)/C=C/c1cccc([N+](=O)[O-])c1             %   -4.32
 8  CC(NCCCN1CCOCC1)C(=O)Nc1ccccc1 (configuration not stated)             %    77.6
 9  COc1ccc2c(c1)CC(C(=O)Nc1ccc(-c3cn[nH]c3)cc1OCC(N)=O)CO2 (configuration not stated)             %    52.7
10           COc1ccc(-c2nc3ccccc3[nH]2)cc1OC             %    10.1
11                 Cc1nc(NC(=O)c2ccoc2C)sc1C             %    1.06
12      CCOc1cccc(/C=N/NC(=O)c2ccc(C)nc2)c1O             %    49.4
13         COc1cc(/C=C(/C#N)C(N)=S)c(Br)cc1O             %    24.1
14      Nc1c(C(=O)Nc2ccccc2)nnn1Cc1ccc(F)cc1             %    3.54
15  COc1ccc(N2CCN(Cc3coc4ccc(Cl)cc4c3=O)CC2)cc1             %    10.4
16                   Cc1cccc(OCCN2CCNCC2)c1C             %    73.1
17  COc1cc(CN2CCN(Cc3ccco3)CC2)c([N+](=O)[O-])cc1OC             %    84.4
18  COc1ccc(Cn2nnc(C(=O)Nc3cccc(Cl)c3)c2N)cc1             %    61.4
19  CCCCc1ccc(Nc2nc3ccccc3nc2NS(=O)(=O)c2ccc(Cl)cc2)cc1             %    1.24
20  COc1ccc2c(c1)CC(C(=O)Nc1ccc(-c3ccncc3)cc1Oc1ccccc1)CO2 (configuration not stated)             %    12.9
21  Fc1ccc(-c2cccc3ccc(N4CCN(c5ncccn5)CC4)nc23)cc1             %    2.86
22       CCc1ccc(NC(=O)C(=O)NCCCN2CCOCC2)cc1             %    12.7
23  O=C(OCCN=C1NS(=O)(=O)c2ccccc21)c1ccc([N+](=O)[O-])cc1             %     -14
24  O=C(CC(Nc1ccc2ccccc2c1)c1cccnc1)c1ccccc1 (configuration not stated)             %     1.3
25  COC(=O)c1sc2ccccc2c1NC(=O)c1ccc2c(c1)OCCO2             %    4.39
26   Cc1ccc(-c2n[nH]c(CNC(=O)c3cnccn3)n2)cc1             %    1.68
27  COc1ccc2c(c1)CC(c1nc(Nc3ccc4cnccc4c3)c3ccccc3n1)CO2 (configuration not stated)             %    55.2
28  Cc1nccn1CC(O)COc1ccc(Br)cc1 (configuration not stated)             %    4.86
29  Cc1ccc(Nc2nc3nonc3nc2N2CCN(C(=O)c3ccccc3)CC2)cc1Cl             %     2.8
30  CCCN1CCc2nc(NC(=O)COc3ccc(Cl)cc3Cl)sc2C1             %    4.61
31        COc1ccc(N2CCN(Cc3ccc(Br)s3)CC2)cc1             %    71.6
32   Cc1ccc(CNC(=O)Cn2ncc3c2-c2ccccc2OC3)cc1             %    4.23
33  O=C(Nc1cccc(N2CCC(N(CC3CCC3)CC3CCCO3)CC2)c1)c1cccnc1 (configuration not stated)             %    21.5
34            COc1cccc(N2CCN(Cc3cccs3)CC2)c1             %    42.8
35  COc1cc(C(=O)N2CCCC2)c([N+](=O)[O-])cc1OC             %     9.4
36  COc1cc(CN2CCN(CCO)CC2)c([N+](=O)[O-])cc1OC             %    13.5
37            Cc1cc(C(C)(C)C)ccc1OCCN1CCNCC1             %    52.3
38       COc1ccc(OCCSc2nnc3nc(C)cc(C)n23)cc1             %    7.82
39  O=C(NCc1ccco1)c1ccc2c(c1)C(=O)N(Cc1cccnc1)C2=O             %   -3.01
40         O=C(CN1CCCCCC1)N/N=C/c1ccc(Cl)cc1             %      20
41    COc1ccc(C2=NNc3cccc4c(OC)ccc2c34)cc1OC             %    51.8
42                   Cc1ccc(OCCN2CCNCC2)cc1C             %     9.7
43   COc1cc(Br)cc(/C=N\NC(=O)c2ccc(C)nc2)c1O             %    60.8
44  COc1cc(Nc2nc(-c3ccc(OC)c(OC)c3)nc3ccccc23)cc(OC)c1             %     -23
45  COc1ccc2c(c1)CC(C(=O)Nc1ccc(-c3cn[nH]c3)cc1C(=O)NCc1ccccc1)CO2 (configuration not stated)             %    24.1
46       COc1ccc(C(=O)Nc2nc(C)c(C)s2)c(OC)c1             %    20.7
